Where do these numbers come from? They come from paper PMC7397174.

Test system: erythrocytic forms of P. falciparum (strain 3D7)
Procedure text: Viability screening of antiplasmodial activity (SYBR-gold DNA quantification, 96 h)
Type: cell-based, Plasmodium falciparum
Measurement conditions: Plasmodium falciparum, 3D7, strain 3D7, erythrocytic forms
pIC50: −log10 of the molar value.
Outcome measure: pIC50

- Compound: "Cc1cc(-c2ccc(N3CCN(C(=O)OC(C)(C)C)CC3)cc2Cl)c2c(N)c(C(=O)Nc3ccc(Cl)cc3)sc2n1 [Compound 17l]"
  Endpoint value: 7.26
- Compound: "Cc1cccc(-c2c3c(nc4sc(C(=O)Nc5ccc(Cl)cc5)c(N)c24)CCC3)c1 [Compound 17f]"
  Endpoint value: 7.72
- Compound: "Cc1nc2sc(C(=O)Nc3ccc(Cl)cc3)c(N)c2c(-c2ccccc2)c1C(=O)OC(C)(C)C [Compound 17g]"
  Endpoint value: 7.60
- Compound: "N#Cc1c(N)nc2sc(C(=O)Nc3ccc(Cl)cc3)c(N)c2c1-c1cccc(Cl)c1 [Compound 9a]"
  Endpoint value: 6.39
- Compound: "Cc1cccc(-c2c(C#N)c(N)nc3sc(C(=O)Nc4ccc(Cl)cc4)c(N)c23)c1 [Compound 9e]"
  Endpoint value: 6.56
- Compound: "N#Cc1c(N)nc2sc(C(=O)Nc3ccc(Cl)cc3)c(N)c2c1-c1ccccc1Cl [Compound 3]"
  Endpoint value: 6.70
- Compound: "CN(CCNC(=O)OC(C)(C)C)c1ccc(-c2c(C#N)c(N)nc3sc(C(=O)Nc4ccc(Cl)cc4)c(N)c23)c(Cl)c1 [Compound 9y]"
  Endpoint value: 6.16
- Compound: "N#Cc1c(N)nc2sc(C(=O)Nc3ccc(Cl)cc3)c(N)c2c1-c1ccc(N2CCOCC2)cc1Cl [Compound 9v]"
  Endpoint value: 5.83
